- Test system: Puccinia triticina
- protocol: Fungicidal activity: wheat brown rust (PUCCRT), wheat seedlings, booth sprayer to run-off or track spray
- Format: in vivo
- conditions: 72 h, Low-Volume Cereal Activity at 121.5 g/H, 3 Day Curative, read-out: PUCCRT 3DC
Field: pest or weed control at 121.5 g/ha. Provide a value for each of the compounds that follow.

compound COc1ccnc(C(=O)N[C@@H](C)C(=O)O[C@@H](C)[C@H](Cc2ccc(Cl)cc2)c2ccccc2)c1OC(C)=O , pest or weed control at 121.5 g/ha observed: 0 to 80%

compound CC[C@H](Cc1ccc(C(F)(F)F)cc1)[C@@H](Cc1ccc(F)cc1)[C@H](C)OC(=O)[C@H](COC)NC(=O)c1nccc(OC)c1OC(C)=O , pest or weed control at 121.5 g/ha observed: 0 to 80%

compound CCCC[C@@H]([C@H](C)OC(=O)[C@H](C)NC(=O)c1nccc(OC)c1OC(=O)O)[C@@H](CC)Oc1ccccc1 , pest or weed control at 121.5 g/ha observed: 80 to 100%

compound COc1ccnc(C(=O)N[C@@H](C)C(=O)O[C@@H](C)[C@H](Cc2ccc(C)cc2)c2ccccc2)c1OC(C)=O , pest or weed control at 121.5 g/ha observed: 0 to 80%

compound CC[C@H](NC(=O)c1nccc(OC)c1OCOC(C)=O)C(=O)O[C@@H](C)C(Cc1ccc(OC)cc1)Cc1ccc(OC)cc1 , pest or weed control at 121.5 g/ha observed: 0 to 80%

compound CCCOC[C@@H](Cc1ccccc1)[C@H](C)OC(=O)CNC(=O)c1nccc(OC)c1OC(C)=O , pest or weed control at 121.5 g/ha observed: 0 to 80%

compound COc1ccnc(C(=O)N[C@@H](C)C(=O)O[C@@H](C)[C@H](Cc2ccc(Cl)cc2)c2ccccc2)c1OC(=O)C(C)C , pest or weed control at 121.5 g/ha observed: 0 to 80%

compound COc1ccnc(C(=O)N[C@@H](C)C(=O)O[C@@H](C)[C@H](Cc2ccc(F)cc2)C(C)(C)OCc2ccc(F)cc2)c1OCOC(C)=O , pest or weed control at 121.5 g/ha observed: 0 to 80%

compound CCC[C@@H](Cc1ccccc1)[C@H](C)OC(=O)[C@H](C)NC(=O)c1nccc(OC)c1OCOC(C)=O , pest or weed control at 121.5 g/ha observed: 80 to 100%

compound COc1ccnc(C(=O)N[C@@H](C)C(=O)O[C@@H](C)[C@H](Cc2ccc(C)cc2)c2ccccc2)c1OCOC(C)=O , pest or weed control at 121.5 g/ha observed: 0 to 80%

compound COc1ccnc(C(=O)N[C@@H](C)C(=O)OC(C)C(Cc2ccc(F)cc2)Cc2ccc(F)cc2)c1OCOC(C)=O (some centres unmarked) , pest or weed control at 121.5 g/ha observed: 80 to 100%

compound COc1ccnc(C(=O)N[C@@H](C)C(=O)O[C@@H](C)[C@H](Cc2ccccc2)C(C)(C)Oc2ccc(Cl)cc2Cl)c1OCOC(C)=O , pest or weed control at 121.5 g/ha observed: 0 to 80%

compound COc1ccnc(C(=O)N[C@@H](C)C(=O)O[C@@H](C)[C@@H](COCc2ccccc2)Cc2ccc(F)cc2)c1OCOC(C)=O , pest or weed control at 121.5 g/ha observed: 0 to 80%

compound CCOCC(=O)OCOc1c(OC)ccnc1C(=O)N[C@@H](C)C(=O)O[C@@H](C)[C@@H](COCc1ccccc1)Cc1ccccc1 , pest or weed control at 121.5 g/ha observed: 80 to 100%

compound COc1ccnc(C(=O)N[C@@H](C)C(=O)O[C@@H](C)[C@H](Cc2ccc3ccccc3c2)c2ccccc2)c1OCOC(C)=O , pest or weed control at 121.5 g/ha observed: 0 to 80%

compound CC[C@H](Oc1ccccc1)[C@@H](Cc1ccccc1)[C@H](C)OC(=O)[C@H](C)NC(=O)c1nccc(OC)c1OCOC(C)=O , pest or weed control at 121.5 g/ha observed: 80 to 100%

compound C=C(C)[C@@H](Cc1ccccc1)[C@H](C)OC(=O)[C@H](C)NC(=O)c1nccc(OC)c1OCOC(C)=O , pest or weed control at 121.5 g/ha observed: 80 to 100%

compound CC[C@H](Cc1ccc(C(F)(F)F)cc1)[C@@H](Cc1ccc(F)cc1)[C@H](C)OC(=O)[C@H](C)NC(=O)c1nccc(OC)c1OC(C)=O , pest or weed control at 121.5 g/ha observed: 0 to 80%

compound COc1ccc(C[C@H](COCC2CC2)[C@H](C)OC(=O)[C@H](C)NC(=O)c2nccc(OC)c2OCOC(C)=O)cc1Cc1ccccc1 , pest or weed control at 121.5 g/ha observed: 0 to 80%

compound CCCOC[C@@H](Cc1ccccc1)[C@H](C)OC(=O)[C@H](C)NC(=O)c1nccc(OC)c1OCOC(C)=O , pest or weed control at 121.5 g/ha observed: 80 to 100%

compound CCCC[C@@H]([C@H](C)OC(=O)[C@H](C)NC(=O)c1nccc(OC)c1OCOC(C)=O)[C@@H](CC)Oc1ccccc1 , pest or weed control at 121.5 g/ha observed: 80 to 100%

compound CCCC[C@H](c1ccccc1)[C@H](C)OC(=O)[C@H](C)NC(=O)c1nccc(OC)c1OC(=O)C(C)C , pest or weed control at 121.5 g/ha observed: 0 to 80%

compound CC[C@H](CC1CC1)[C@@H](Cc1ccccc1)[C@H](C)OC(=O)[C@H](C)NC(=O)c1nccc(OC)c1OCOC(C)=O , pest or weed control at 121.5 g/ha observed: 0 to 80%

compound COc1ccnc(C(=O)N[C@@H](C)C(=O)O[C@@H](C)[C@@H](COCc2ccc(F)cc2)Cc2ccc(F)cc2)c1OC(C)=O , pest or weed control at 121.5 g/ha observed: 0 to 80%

compound COc1ccnc(C(=O)N[C@@H](C)C(=O)OC(C)C(Cc2ccccc2)Cc2ccccc2)c1OCOC(C)=O (some centres unmarked) , pest or weed control at 121.5 g/ha observed: 0 to 80%

compound CC[C@H](Oc1ccccc1)[C@@H](Cc1ccccc1)[C@H](C)OC(=O)[C@H](C)NC(=O)c1nccc(OC)c1OC(C)=O , pest or weed control at 121.5 g/ha observed: 80 to 100%

###

Field: pest or weed control at 121.5 g/ha. Provide a value for each of the compounds that follow.
- Tested on: Puccinia triticina
- protocol: Fungicidal activity: wheat brown rust (PUCCRT), wheat seedlings, booth sprayer to run-off or track spray
- Assay type: in vivo
- conditions: 72 h, Low-Volume Cereal Activity at 121.5 g/H, 3 Day Curative, read-out: PUCCRT 3DC

compound COc1ccnc(C(=O)N[C@@H](C)C(=O)O[C@@H](C)[C@H](Cc2ccccc2)C(C)(C)OC)c1OCOC(C)=O , pest or weed control at 121.5 g/ha observed: 80 to 100%

compound COCCC(=O)Oc1c(OC)ccnc1C(=O)N[C@@H](C)C(=O)O[C@@H](C)[C@H](CCC(C)C)c1ccccc1 , pest or weed control at 121.5 g/ha observed: 80 to 100%

compound COc1ccnc(C(=O)N[C@@H](C)C(=O)O[C@@H](C)[C@@H](COCc2ccc(F)cc2)Cc2ccc(F)cc2)c1OCOC(C)=O , pest or weed control at 121.5 g/ha observed: 0 to 80%

compound COc1ccc(C[C@@H]([C@H](C)OC(=O)[C@H](C)NC(=O)c2nccc(OC)c2OCOC(C)=O)C(C)(C)Oc2ccc(F)cc2F)cc1 , pest or weed control at 121.5 g/ha observed: 0 to 80%

compound COc1ccc(C[C@@H]([C@H](C)OC(=O)[C@H](C)NC(=O)c2nccc(OC)c2OCOC(C)=O)C(C)(C)OCC2CC2)cc1 , pest or weed control at 121.5 g/ha observed: 0 to 80%

compound CCOCC(=O)OCOc1c(OC)ccnc1C(=O)N[C@@H](C)C(=O)O[C@@H](C)[C@@H](COCc1ccc(F)cc1)Cc1ccc(F)cc1 , pest or weed control at 121.5 g/ha observed: 0 to 80%

compound CC[C@H](Cc1ccccc1)[C@@H](Cc1ccc(OC(F)(F)F)cc1)[C@H](C)OC(=O)[C@H](C)NC(=O)c1nccc(OC)c1OCOC(C)=O , pest or weed control at 121.5 g/ha observed: 0 to 80%

compound CCOCC(=O)OCOc1c(OC)ccnc1C(=O)N[C@@H](C)C(=O)O[C@@H](C)[C@H](Cc1ccc(F)cc1)C(C)(C)OCc1ccccc1 , pest or weed control at 121.5 g/ha observed: 0 to 80%

compound CC[C@@H](Oc1ccccc1)[C@@H](Cc1ccccc1)[C@H](C)OC(=O)[C@H](C)NC(=O)c1nccc(OC)c1OC(C)=O , pest or weed control at 121.5 g/ha observed: 0 to 80%

compound CCCOC[C@@H](Cc1ccccc1)[C@H](C)OC(=O)CNC(=O)c1nccc(OC)c1OCOC(C)=O , pest or weed control at 121.5 g/ha observed: 80 to 100%

compound CCOC[C@H](Oc1ccc(C)cc1)[C@@H](Cc1ccc(F)cc1)[C@H](C)OC(=O)[C@H](C)NC(=O)c1nccc(OC)c1OCOC(C)=O , pest or weed control at 121.5 g/ha observed: 0 to 80%

compound COc1ccc(CC(Cc2ccc(OC)cc2)[C@H](C)OC(=O)[C@H](C)NC(=O)c2nccc(OC)c2OC(C)=O)cc1 , pest or weed control at 121.5 g/ha observed: 0 to 80%

compound COc1ccnc(C(=O)N[C@@H](C)C(=O)O[C@@H](C)[C@@H](COCCC(C)C)Cc2ccccc2)c1OC(C)=O , pest or weed control at 121.5 g/ha observed: 0 to 80%

Origin of values: patent US10173971B2
